Origin of the recorded values: patent US20040147432A1

# SYSTEM TESTED: human melanin concentrating hormone type 2 receptor (MCH-2R) (human, UniProt Q969V1 1-340)
# Sequence (Q969V1 whole entry, form in doubt): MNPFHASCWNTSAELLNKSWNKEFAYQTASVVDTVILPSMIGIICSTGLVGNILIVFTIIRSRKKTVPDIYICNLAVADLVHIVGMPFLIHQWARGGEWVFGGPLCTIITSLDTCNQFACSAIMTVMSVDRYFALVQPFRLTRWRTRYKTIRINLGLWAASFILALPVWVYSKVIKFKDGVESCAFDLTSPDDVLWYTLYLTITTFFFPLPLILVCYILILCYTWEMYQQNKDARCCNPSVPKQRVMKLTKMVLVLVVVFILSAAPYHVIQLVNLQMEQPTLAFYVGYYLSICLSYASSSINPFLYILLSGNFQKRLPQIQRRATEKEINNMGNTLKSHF
# EXPERIMENTAL DETAILS: cell-based or functional assay
Bridges are numbered along the chain shown (N, C = ends). Where no end group is shown, it is not given here.
EXPERIMENTAL ENDPOINT: Activation % at 10 µM (aequorin functional assay) (%)
Value expressed in %; do not type the unit.

Worked examples follow.
Query string: Could you tell me which Activation % at 10 µM (aequorin functional assay) is on file for AFDMLRCMLGRVYRPCWQV (disulfide 7-16, positions 1-19 as in hMCH; also called Ala^1) [SEQ. ID. NO. 41] ?
Result string: 96

Query string: Param item = DFDMLACMLGRVYRPCWQV (disulfide 7-16, also called Ala^6) [SEQ. ID. NO. 46] ; retrieve measured Activation % at 10 µM (aequorin functional assay).
Result string: 76

Could you now consider this next binder?
Query string: Need Activation % at 10 µM (aequorin functional assay) of DFDMLRCMAGRVYRPCWQV (disulfide 7-16, also called Ala^9) [SEQ. ID. NO. 48] , thanks.
Result string: 92
